system_tested: Casein kinase 2 (Homo sapiens, UniProt P67870+P68400+P19784+Q8NEV1)
assay_protocol: Inhibition of human recombinant CK2 using RRRDDDSDDD peptide as substrate incubated for 30 mins in presence of ATP by scintillation counting method
Format: protein assay
Items are presented alongside their recorded IC50.
Reply numerically in µM, unit not repeated.

>>> df
                                  structure  obs_value
0  O=C1NC(Nc2ccccc2)=N/C1=C\c1ccc2c(c1)OCCO2       0.97

Provide value of IC50 for this record tested with Casein kinase 2 (Homo sapiens, UniProt P67870+P68400+P19784+Q8NEV1): `Cc1ccc(NC2=N/C(=C\c3ccc4c(c3)OCO4)C(=O)N2)c(C)c1` 2.4

Entry `CN1CCN(c2ccc(NC3=N/C(=C\c4ccc5c(c4)OCO5)C(=O)N3)cc2)CC1` please 1.2

How about this molecule: `O=C1NC(Nc2ccccn2)=N/C1=C\c1ccc2c(c1)OCO2` 0.13

Also, `[2H]C1([2H])Oc2ccc(/C=C3\N=C(Nc4ccccc4)NC3=O)cc2O1` please. 1.6

And `O=C1NC(Nc2ccc(O)cc2)=N/C1=C\c1ccc2c(c1)OCO2` ? 0.14

Try this molecule too: `COc1ccc(/C=C2\N=C(Nc3ccccc3)NC2=O)cc1` 2.1

Follow-up item: `O=C1NC(Nc2ccccc2)=N/C1=C\c1ccc2c(c1)CCCO2` 2.2

Then this molecule: `CCCCCOc1ccc(NC2=N/C(=C\c3ccc4c(c3)OCO4)C(=O)N2)cc1` 1.3

---

system_tested: Dual specificity tyrosine-phosphorylation-regulated kinase 1A (Homo sapiens, UniProt Q13627)
assay_protocol: Inhibition of GST-fused human recombinant DYRK1A expressed in Escherichia coli using GRSRSRSRSRSR peptide as substrate incubated for 30 mins in presence of ATP by scintillation counting method
quantity_measured: IC50

Past entries and their recorded results:
In [3]: df
Out[3]:
                                  structure   obs_value
0  O=C1NC(Nc2ccc(N3CCCCC3)cc2)=N/C1=C\c1ccc2c(c1)OCO2      700 nM
1  O=C1NC(NC2CCNCC2)=N/C1=C\c1ccc2c(c1)OCO2      340 nM
2     COc1cccc(/C=C2\N=C(Nc3ccccc3)NC2=O)c1  > 10000 nM
3  CN(C1=N/C(=C\c2ccc3c(c2)OCO3)C(=O)N1)c1ccccc1      380 nM
4   O=C1NC(N2CCOCC2)=N/C1=C\c1ccc2c(c1)OCO2      440 nM
5       CSC1=N/C(=C\c2ccc3c(c2)OCO3)C(=O)N1      110 nM
6  Cc1ccc(NC2=N/C(=C\c3ccc4c(c3)OCO4)C(=O)N2)c(C)c1       72 nM
7   O=C1NC(N2CCCCC2)=N/C1=C\c1ccc2c(c1)OCO2      130 nM

Alright, here's another compound for you.
I'd like to know its IC50. The compound in question is `CCCSC1=N/C(=C\c2ccc3c(c2)OCO3)C(=O)N1` 40 nM

---

system_tested: Dual specificity protein kinase CLK1 (Mus musculus, UniProt P22518)
Sequence (P22518 whole entry, the tested form may be a part): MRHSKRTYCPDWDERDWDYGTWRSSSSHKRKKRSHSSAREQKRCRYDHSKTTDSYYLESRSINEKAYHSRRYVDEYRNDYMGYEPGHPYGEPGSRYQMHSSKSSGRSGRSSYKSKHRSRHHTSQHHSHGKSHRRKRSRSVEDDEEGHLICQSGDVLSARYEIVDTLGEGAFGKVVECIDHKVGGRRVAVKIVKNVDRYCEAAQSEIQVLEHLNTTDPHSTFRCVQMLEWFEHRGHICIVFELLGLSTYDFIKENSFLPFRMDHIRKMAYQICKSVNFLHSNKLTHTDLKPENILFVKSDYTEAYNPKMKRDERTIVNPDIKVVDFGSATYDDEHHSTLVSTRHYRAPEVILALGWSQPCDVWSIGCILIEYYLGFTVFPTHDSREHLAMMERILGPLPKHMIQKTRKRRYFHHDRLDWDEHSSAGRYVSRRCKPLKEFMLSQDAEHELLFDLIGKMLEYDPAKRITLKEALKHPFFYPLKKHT
assay_protocol: Inhibition of GST-fused mouse recombinant CLK1 expressed in Escherichia coli using GRSRSRSRSRSR peptide as substrate incubated for 30 mins in presence of ATP by scintillation counting method
quantity_measured: log10 IC50 (log10 of the value in nM)
Form field - Quantity: IC50; Unit: nM; Scale: log10

>>> df
                                   compound  quantity_measured  obs_value
0     CCCNC1=N/C(=C\c2ccc3c(c2)OCO3)C(=O)N1         log10 IC50       1.85
1               Cn1cc(Cc2ccc3c(c2)OCO3)nc1N         log10 IC50       3.51
2     CCCSC1=N/C(=C\c2ccc3c(c2)OCO3)C(=O)N1         log10 IC50       1.53
3  O=C1NC(Nc2ccc(O)cc2)=N/C1=C\c1ccc2c(c1)OCO2         log10 IC50       1.34
4        NC1=N/C(=C\c2ccc3c(c2)OCO3)C(=O)N1         log10 IC50       1.61

Fill in the blank: the reported log10 IC50 of `CCCNC1=N/C(=C\c2ccc3c(c2)OCO3)C(=O)N1CCC` is ____. 3.48

One more compound: `O=C1NC(Nc2ccccc2)=N/C1=C\c1ccc2c(c1)CCCO2` 2.08

Next record, please: `O=C1NC(Nc2ccccc2)=N/C1=C\c1ccc2c(c1)CCO2` 1.34

Same read-out for `O=C1NC(Nc2ccc(N3CCNCC3)cc2)=N/C1=C\c1ccc2c(c1)OCO2` ? 2.62
